# credit: the kinase profiling compilation of Christmann-Franck et al. (2016)

- tgt: ERBB4 (human) (UniProt Q15303)
- Sequence (Q15303 whole entry, looked up): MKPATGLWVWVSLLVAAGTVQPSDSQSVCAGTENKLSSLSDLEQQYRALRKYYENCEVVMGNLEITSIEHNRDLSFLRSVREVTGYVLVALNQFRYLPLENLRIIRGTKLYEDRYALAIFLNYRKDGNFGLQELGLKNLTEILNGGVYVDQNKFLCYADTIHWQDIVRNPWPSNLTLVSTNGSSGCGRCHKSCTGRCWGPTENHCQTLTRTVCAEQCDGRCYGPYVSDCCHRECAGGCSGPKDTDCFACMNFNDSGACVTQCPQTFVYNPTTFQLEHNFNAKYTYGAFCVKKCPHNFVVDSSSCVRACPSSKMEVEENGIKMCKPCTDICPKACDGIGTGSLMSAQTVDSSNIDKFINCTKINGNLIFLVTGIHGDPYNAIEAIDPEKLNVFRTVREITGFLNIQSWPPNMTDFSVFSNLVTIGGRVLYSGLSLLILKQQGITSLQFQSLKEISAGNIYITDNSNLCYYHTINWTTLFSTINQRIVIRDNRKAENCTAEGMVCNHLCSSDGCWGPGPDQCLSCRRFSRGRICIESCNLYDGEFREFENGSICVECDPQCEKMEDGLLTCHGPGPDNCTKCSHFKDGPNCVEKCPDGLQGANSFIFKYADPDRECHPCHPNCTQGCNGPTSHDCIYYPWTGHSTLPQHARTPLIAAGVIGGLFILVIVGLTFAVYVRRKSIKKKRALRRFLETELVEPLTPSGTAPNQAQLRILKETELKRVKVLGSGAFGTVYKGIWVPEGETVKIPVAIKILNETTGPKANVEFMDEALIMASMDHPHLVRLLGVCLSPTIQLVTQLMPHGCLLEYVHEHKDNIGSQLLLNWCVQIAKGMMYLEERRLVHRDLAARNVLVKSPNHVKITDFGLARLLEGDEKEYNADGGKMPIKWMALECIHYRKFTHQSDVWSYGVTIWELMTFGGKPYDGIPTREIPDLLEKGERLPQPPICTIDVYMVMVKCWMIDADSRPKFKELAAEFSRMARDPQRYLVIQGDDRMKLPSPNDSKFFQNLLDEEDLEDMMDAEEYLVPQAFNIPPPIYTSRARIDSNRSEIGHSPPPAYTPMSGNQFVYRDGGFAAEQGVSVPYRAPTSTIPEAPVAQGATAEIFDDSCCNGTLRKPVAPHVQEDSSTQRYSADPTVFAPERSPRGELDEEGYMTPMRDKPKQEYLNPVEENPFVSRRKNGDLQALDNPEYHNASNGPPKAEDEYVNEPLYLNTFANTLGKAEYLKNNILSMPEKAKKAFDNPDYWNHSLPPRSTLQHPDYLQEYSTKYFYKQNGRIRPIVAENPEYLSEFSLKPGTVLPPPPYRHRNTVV
- assayNotes: KINOMEscan competition binding
- conditions: compound 1.0 µM

[
  {
    "givenSmiles": "CN(C)C/C=C/C(=O)Nc1cccc(C(=O)Nc2ccc(Nc3nccc(/C(C#N)=C4\\Nc5ccccc5S4)n3)cc2)c1",
    "kinase still bound, per cent of control": "100%"
  },
  {
    "givenSmiles": "CN(C)C/C=C/C(=O)Nc1cccc(C(=O)Nc2ccc(Nc3nccc(-c4cccnc4)n3)cc2)c1",
    "kinase still bound, per cent of control": "100%"
  },
  {
    "givenSmiles": "Cc1cc(NC(=O)c2cccc(NC(=O)/C=C/CN(C)C)c2)ccc1Nc1nccc(-c2cccnc2)n1",
    "kinase still bound, per cent of control": "96%"
  },
  {
    "givenSmiles": "CN(C)C/C=C/C(=O)Nc1cccc(C(=O)Nc2ccc(Nc3nccc(-c4c(-c5ccccc5)nn5ccccc45)n3)cc2)c1",
    "kinase still bound, per cent of control": "5.4%"
  }
]
